binding at pH 5.5 relative to neutral pH (pH 7.0) for assorted binders
Target: T1, His-hCTLA-4 (polyhistidine-tagged CTLA-4) (human, UniProt P16410 36-161)
T1 construct: Coated on ELISA plates at 0.5 ug/ml; not shown: polyhistidine tag
T1 sequence (looked up): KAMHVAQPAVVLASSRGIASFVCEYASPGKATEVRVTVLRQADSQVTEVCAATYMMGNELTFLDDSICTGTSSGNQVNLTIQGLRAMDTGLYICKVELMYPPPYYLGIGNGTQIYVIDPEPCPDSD
Experiment: ELISA, plate-coated His-hCTLA-4, antibody 1 ug/ml, pH 5.5 against pH 7.0

# binder, recorded_measurement
records = [
    ("AB159 (antibody, IgG1, V domains shown, TremeIgG1 mutant, IgG1; also called TremeIgG1M) VH: QVQLVESGGGVVQPGRSLRLSCAASGFTFSSYGMHWVRQAPGKGLEWVAVIWYDGSNKHHADSVKGRFTISRDNSKNTLYLQMNSLRAEDTAVYYCARDPRGATLYYYYYGMDVWGQGTTVTVSS VL: DIQMTQSPSSLSASVGDRVTITCRASQSINSYLDWYQQKPGKAPKLLIYAASSLQSGVPSRFSGSGSGTDFTLTISSLQPEDFATYYCQQYYSTPFTFGPGTKVEIKR", "≥ 75%"),
    ("AB157 (antibody, IgG1, V domains shown, TremeIgG1 mutant, IgG1; also called TremeIgG1M) VH: QVQLVESGGGVVQPGRSLRLSCAASGFTFSSYGMHWVRQAPGKGLEWVAVIWYDGSNKYYADSVKGRFTISRDNSKNTLYLQMNSLRAEDTAVYYCARDPRGATLYHHYYGMDVWGQGTTVTVSS VL: DIQMTQSPSSLSASVGDRVTITCRASQSINSYLDWYQQKPGKAPKLLIYAASSLQSGVPSRFSGSGSGTDFTLTISSLQPEDFATYYCQQYYSTPFTFGPGTKVEIKR", "≤ 50%"),
    ("AB158 (antibody, IgG1, V domains shown, TremeIgG1 mutant, IgG1; also called TremeIgG1M) VH: QVQLVESGGGVVQPGRSLRLSCAASGFTFSSYGMHWVRQAPGKGLEWVAVIWYDGSNKYYADSVKGRFTISRDNSKNTLYLQMNSLRAEDTAVYYCARDPRGATLYHYYYGMDVWGQGTTVTVSS VL: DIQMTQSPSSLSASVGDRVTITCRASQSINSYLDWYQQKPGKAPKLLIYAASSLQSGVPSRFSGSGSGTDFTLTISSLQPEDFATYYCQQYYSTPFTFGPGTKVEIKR", "≥ 75%"),
]

Please look at the following binder next.
Prompt: I have this binder here, AB156 (antibody, IgG1, V domains shown, TremeIgG1 mutant, IgG1; also called Mab156; TremeIgG1M) VH: QVQLVESGGGVVQPGRSLRLSCAASGFTFSSYGMHWVRQAPGKGLEWVAVIWYDGSNKYYADSVKGRFTISRDNSKNTLYLQMNSLRAEDTAVYYCARDPRGATLHHHYYGMDVWGQGTTVTVSS VL: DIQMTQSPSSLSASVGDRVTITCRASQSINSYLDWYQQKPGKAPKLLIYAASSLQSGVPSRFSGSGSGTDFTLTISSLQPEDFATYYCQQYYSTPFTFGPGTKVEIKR , and I need its recorded binding at pH 5.5 relative to neutral pH (pH 7.0).
Response: ≤ 50%
